# Test system: TO-3-N3 (biotin conjugate)
# test.protocol: pull-down binding Z-score (relative to library population); higher = stronger binding
# test.context: RNA library: Library-2
Items are presented alongside their recorded pull-down binding Z-score.
Answer with a number only.

Provide pull-down binding Z-score value for the following sequence: CUUUGGUGGCUAUGGUUGACUGGGCCACUCAGAG [hsa-mir-4468]
-0.366

Provide pull-down binding Z-score value for the following sequence: AUAUGUGUGUAUAUAUGUACACAUAC [hsa-mir-466]
-0.227

Provide pull-down binding Z-score value for the following sequence: AUCUGAGGUGACUGGCACAGAAGACUCAGG [hsa-mir-6735]
0.238

Provide pull-down binding Z-score value for the following sequence: `ACCAACCACCACAAACCUCUAUCACCUCAGCUGUUUUGCAGAGUGGUUUUAGAAAAAUGGCAUUCCCAUCUGGU`
0.0884

Provide pull-down binding Z-score value for the following sequence: CCUGCACCACGCACAUUGCUAACUAAGG [SHAPE_invitro_SARS-CoV-2_Motif_318]
-0.429

* * *

# Test system: TO-N3-2 (biotin conjugate)
# test.protocol: pull-down binding Z-score (relative to library population); higher = stronger binding
# test.context: RNA library: Library-2
Items are presented alongside their recorded pull-down binding Z-score.

Consider the reported pull-down binding Z-score for these sequences:
1) AAUAAAGUAUGUCCACAGCUGAAAGGACAUACUUUAUU [hsa-mir-4464] :: -1.28
2) UAGUGGAAAGAGCACUG [hsa-mir-378b] :: -0.274
3) GGUCUGCAGGACU [IAV_invivo_PA_3_Motif_27+IAV_invivo_PA_3_Motif_27] :: -0.231

Provide pull-down binding Z-score value for the following sequence: CUUUUAUGUGCCUUGAUAUAAAAG [hsa-mir-3910-2]
-0.682

Provide pull-down binding Z-score value for the following sequence: UGGCAAAGACAUAGAUUGUUUAGCUACCCCUUUGCCA [hsa-mir-3119-2]
-0.58

Provide pull-down binding Z-score value for the following sequence: GUGUACAGGGAGGAGACUGUACGUGAGAGAUAGUCAGAUCCGCAUGUUAGAGCAGAGUCUCCUUCGUGUACAG [hsa-mir-4441]
0.631

Provide pull-down binding Z-score value for the following sequence: `ACCUCGUCUAUGCUUUAAGGCAUUUUGAUGAAGGU`
-0.876

* * *

# Test system: TO-N3-2 (biotin conjugate)
# test.protocol: pull-down binding Z-score (relative to library population); higher = stronger binding
# test.context: RNA library: Library-2
Items are presented alongside their recorded pull-down binding Z-score.
Answer with a number only.

Consider the reported pull-down binding Z-score for these sequences:
1) GCUGCAGAUCUUUGUCUAAGCAGC [hsa-mir-4498] :: -0.274
2) CUGGGGACUGUGUGGACUGGUAUCACCCAG [hsa-mir-2278] :: 0.585

Quote pull-down binding Z-score with test system TO-N3-2 (biotin conjugate) for AAAUAGUUUCUAUCAAAAUAGUUU [hsa-mir-3668]
-1.14

Quote pull-down binding Z-score with test system TO-N3-2 (biotin conjugate) for UUGGGAUCCACCUUUCUCUCGA [hsa-mir-196b]
-0.031

Quote pull-down binding Z-score with test system TO-N3-2 (biotin conjugate) for UGAGGAGUAGAACACUCCUUA [hsa-mir-491]
-0.939

Quote pull-down binding Z-score with test system TO-N3-2 (biotin conjugate) for GUUGUUUUUAGAUAACUAAAUCGACAAC [hsa-mir-7-1]
0.0256
